Biological target: Cytochrome P450 1A2 (Homo sapiens)
Assay: Cytochrome panel assay with activity outcomes
Conditions: recombinant CYP, pro-luciferin dealkylation, luminescence, p450-cyp1a2; series mostly up to 57.1 µM
The campaign covered roughly 16,000 compounds. About 5,700 (36%) were called active. About 24% were inconclusive and are not listed. Calls follow the shape of the dose curve; as a rule, active = well fitted curve in the direction sought with a large enough effect; inconclusive = small, poorly fitted or top-dose-only effect, or effect the other way; inactive = no such curve, though single readings can be large or run the other way. Some of the results follow.
Reply using exactly one outcome from YES (active), NO (inactive)

- MOLECULE: "C=C1[C@@H]2C[C@@]3([C@H]1O)[C@H]1C[C@@H]4[C@@]5(C)CC[C@H](O)[C@]4([C@H]1N(CC)C5)[C@H]3C[C@H]2O"
  CLASS_ASSIGNMENT: "NO"

Next:
Hello, I am checking results. What call was entered for OC1(c2ccc(F)cc2)CCNC1 (stereo not drawn) ?
NO

====

Target: Cytochrome P450 1A2 (Homo sapiens)
Test: Cytochrome panel assay with activity outcomes
Settings: recombinant CYP, pro-luciferin dealkylation, luminescence, p450-cyp1a2; series mostly up to 57.1 µM
Experimental: The P450 gene superfamily is involved in the metabolism and clearance of xenobiotics. This assay used various human CYP P450 isozymes to measure the dealkylation of various pro-luciferin substrates to luciferin. The luciferin is then measured by luminescence after the addition of a luciferase detection reagent. […] Inhibitors and some substrates limit the production of luciferin, and decrease measured luminescence. […] 8, Detection, 1 sec, ViewLux luminescent read […]
The campaign covered roughly 16,000 compounds. About 5,700 (36%) were called active. Another 24% or so got no clear call; they are omitted. The call rests on the fitted dose curve; in most records, active means well fitted curve in the direction sought with a large enough effect; inconclusive means small, poorly fitted or top-dose-only effect, or effect the other way; inactive means no such curve, though single readings can be large or run the other way. This is one part of the list.
Reply using exactly one outcome from T = active, F = inactive

- COMPOUND: "Cc1c2ccncc2c(C)c2c1[nH]c1ccccc12"
  CLASS_ASSIGNMENT: "T"
- COMPOUND: "COc1cc(/C=N/NC(=O)CN2CC(c3ccccc3)CC2=O)ccc1OC(=O)N(C)C (configuration not stated)"
  CLASS_ASSIGNMENT: "F"
- COMPOUND: "CCC(=O)O[C@@](Cc1ccccc1)(c1ccccc1)[C@@H](C)CN(C)C"
  CLASS_ASSIGNMENT: "F"
- COMPOUND: "CCC12C=CCN3CCC4(c5cc(Br)c(OC)cc5N(C)C4C(O)(C(=O)OC)C1OC(C)=O)C32 (configuration not stated)"
  CLASS_ASSIGNMENT: "F"
- COMPOUND: "Nc1nc2[nH]c(=O)cnc2c(=O)[nH]1"
  CLASS_ASSIGNMENT: "F"
- COMPOUND: "C=C(C)[C@H]1CN[C@H](C(=O)O)[C@@H]1CC(=O)O"
  CLASS_ASSIGNMENT: "F"

Hello, I am checking results. What call was entered for C/C(=C\c1ccc(N(C)C)cc1)[N+](=O)[O-] ?
T

Another compound: O=C(Oc1ccccc1)N1CCC2(CCN(Cc3ccccc3)CC2)CC1
F

Another compound: COc1ccc2c(c1)CCC1[C@@H]2CCC2(C)[C@@H](NCCCCCCN3C(=O)C=CC3=O)CC[C@@H]12 (some centres not stated)
F

Another compound: COCCNC(=S)N1C2CCC1CC(NC(=O)NC13CC4CC(CC(C4)C1)C3)C2 (configuration not stated)
F

Another compound: CS(=O)(=O)Nc1ccc(Cc2noc(-c3ccc4[nH]cc(CCN)c4c3)n2)cc1
T

Another compound: Cc1ccc(C2CC(=O)C(C=NCCN3CCN(C(=O)Cc4ccccc4)CC3)=C(O)C2)cc1 (configuration not stated)
F

====

Target: Cytochrome P450 1A2 (Homo sapiens)
Assay: Cytochrome panel assay with activity outcomes
Conditions: recombinant CYP, pro-luciferin dealkylation, luminescence, p450-cyp1a2; series mostly up to 57.1 µM
About 5,700 (36%) of roughly 16,000 compounds were called active. About 24% were inconclusive and are not listed. The call rests on the fitted dose curve; in most records, active means well fitted curve in the direction sought with a large enough effect; inconclusive means small, poorly fitted or top-dose-only effect, or effect the other way; inactive means no such curve, though single readings can be large or run the other way. The list shows a part of the results.
Reply using exactly one outcome from 1 for active, -1 for inactive

A selection of reference data follows.
- STRUCTURE_STRING: "CC(=NCc1ccco1)c1c(O)n(-c2ccccc2)c(=O)[nH]c1=O"
  CLASS_ASSIGNMENT: 1
- STRUCTURE_STRING: "CC(C)CCn1c(N)c(C(=O)NCc2cccs2)c2nc3ccccc3nc21"
  CLASS_ASSIGNMENT: 1
- STRUCTURE_STRING: "CCOC(=O)Cn1cc(C(=O)c2ccccc2F)c2ccccc21"
  CLASS_ASSIGNMENT: 1
- STRUCTURE_STRING: "O=C(Oc1ccccc1)N1CCC2(CCCN(C(c3ccccc3)c3ccccc3)C2)CC1"
  CLASS_ASSIGNMENT: -1
- STRUCTURE_STRING: "O=C(c1ccccc1F)c1cn(Cc2ccccc2)c2ccccc12"
  CLASS_ASSIGNMENT: 1

Hello, I am checking results. What call was entered for CCCN1CCC[C@H](c2cccc(C#N)c2)C1 ?
-1

Another compound: CC(C)N[C@@H](C)Cc1ccc(I)cc1
1

Another compound: CCC1(CC)C(=O)C=CNC1=O
-1

====

Target: Cytochrome P450 1A2 (Homo sapiens) (UniProt P05177)
Sequence (P05177 whole entry, looked up): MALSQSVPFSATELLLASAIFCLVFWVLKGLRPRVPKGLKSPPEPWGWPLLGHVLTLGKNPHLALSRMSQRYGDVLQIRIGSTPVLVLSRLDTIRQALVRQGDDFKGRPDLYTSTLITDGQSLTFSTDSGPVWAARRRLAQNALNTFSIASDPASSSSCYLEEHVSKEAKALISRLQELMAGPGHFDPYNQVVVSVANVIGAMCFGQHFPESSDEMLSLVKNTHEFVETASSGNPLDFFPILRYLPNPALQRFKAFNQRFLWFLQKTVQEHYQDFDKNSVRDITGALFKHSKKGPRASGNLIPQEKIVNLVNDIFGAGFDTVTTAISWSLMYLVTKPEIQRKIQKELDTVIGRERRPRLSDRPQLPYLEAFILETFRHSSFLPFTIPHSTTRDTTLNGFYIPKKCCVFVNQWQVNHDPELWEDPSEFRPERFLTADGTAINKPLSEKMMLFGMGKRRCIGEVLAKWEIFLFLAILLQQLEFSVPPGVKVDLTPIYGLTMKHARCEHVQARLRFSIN
Test: Cytochrome panel assay with activity outcomes
Settings: recombinant CYP, pro-luciferin dealkylation, luminescence, p450-cyp1a2; series mostly up to 57.1 µM
Hit rate of the full screen: of about 16,000 compounds, about 5,700 (36%) were called active. Another 24% or so got no clear call; they are omitted. The list shows a part of the results.
ATTRIBUTE_MEASURED: AC50

- MOLECULE: "NC(N)=Nc1ccc2[nH]c3c(c2c1)C[C@]1(O)[C@@H]2Cc4ccc(O)c5c4[C@]1(CCN2CC1CC1)[C@H]3O5"
  AC50: "inactive"
- MOLECULE: "Cc1cccc([C@H](C)c2cnc[nH]2)c1C"
  AC50: "0.158 µM (active)"
- MOLECULE: "CCN(CC)c1ncnc2c1ncn2[C@@H]1O[C@@H](COP(=O)(O)OP(=O)(O)C(Br)(Br)P(=O)(O)O)[C@H](O)[C@@H]1O"
  AC50: "inactive"
- MOLECULE: "COc1cc(CNC(=O)CCCC/C=C\\C(C)C)ccc1O"
  AC50: "1.58 µM (active)"

Lab note: need AC50 with Cytochrome P450 1A2 (Homo sapiens) (UniProt P05177) for entry c1csc(CN2CCCC3(CCNCC3)C2)n1 , please look it up.
inactive

Another molecule: c1ccc(CN2CC[C@@]3(CCCNC3)C2)cc1
inactive

Another molecule: COc1cc(CCN)ccc1O
inactive

Another molecule: N[C@H](Cc1o[nH]c(=O)c1Cl)C(=O)O
inactive

Another molecule: CN(C)CCOC(=O)COc1ccc(Cl)cc1
10 µM (active)

Another molecule: NC(=O)c1ncn([C@H]2O[C@@H](CO)[C@@H](O)[C@@H]2O)n1
inactive

Another molecule: CC(=O)O[C@@H]1CN2CCC1CC2
inactive

Another molecule: Cc1ccc(S(=O)(=O)NCC2CCC(C(=O)N3CCC4(CC3)OCCO4)CC2)cc1 (stereo unspecified)
inactive

Another molecule: O=C(c1cc(=O)[nH]c2ccc(Br)cc12)N1CCC2(CC1)OCCO2
inactive

Another molecule: CC(=O)[C@@H]1CC[C@@H]2[C@@H]3CCC4=CC(=O)CC[C@@]4(C)[C@H]3CC[C@]21C
inactive

Another molecule: CCN(CC)CCO[C@H]1CC[C@@]2(C)C(=CC[C@@H]3[C@H]2CC[C@]2(C)C(=O)CC[C@H]32)C1
inactive

Another molecule: Clc1ccccc1-c1cncnc1NCCc1cnc[nH]1
1.58 µM (active)
